# system tested: T1, fejerlectin (Fejervarya limnocharis, disulfide 3-9 (inferred))
# T1 peptide: RLCYMVLPCP
# assay summary: SPR
Positions of bridges follow the written chain, without caps; N, C: chain ends. No end group written: not given here.
readout: Kd (µM)
Report the figure in µM without appending any unit label.

Q. Which Kd value is on record for SGIVQQQNNLLRAIEAQQRMLQLTVWGIKQLQARVL [N36 peptide derived from HIV-1 JR-FL gp41] ?
A. 466
